tested on: HT29 colon; test: NCI-60 one-dose screen, 48 h (100 = growth as untreated, 0 = no growth, -100 = all killed); settings: 10 µM unless noted
This is part of a sample that, as a whole, favours compounds with a hit. Of some 83,000 tested, about 20% had one in any assay.
I'd be grateful if you could share measured growth for these entries.
Answers are plain numbers, in %.

Completed entries (count: 3):
Cc1cn(-c2cc(NC(=O)c3cccc(C#Cc4cccc5[nH]nc(N)c45)c3)cc(C(F)(F)F)c2)cn1 :: 18.4
O=C(O)c1ccc(-n2cc(/C=N/Nc3ccccc3)c(-c3ccc(F)cc3F)n2)cc1 :: 90.5
CC(C)=CC(=O)OCC(=O)O[C@@H]1C[C@]2(C(C)C)O[C@@]1(C)[C@@H]1CC[C@@H](C)[C@H]1[C@@H]2OC(=O)/C=C/c1ccccc1 :: 85.8

Kindly review the next compound as well.
In: Report growth for `CC(C)c1ccc(-n2c(=S)[nH]c3sc4cc(O)ccc4c3c2=O)cc1` tested on HT29 colon.
Out: 113

###

tested on: MALME-3M melanoma; assay: NCI-60 one-dose screen, 48 h; details: 10 µM unless noted
This is part of a sample that, as a whole, favours compounds with a hit. Of some 83,000 tested, about 20% had one in any assay. Active and inactive are the calls of the source. The calls were made as follows: active = growth percent below 10; inactive = the rest.
# valid calls are active, inactive; nothing else

CN(/C(N)=N/N=C/c1c2ccccc2cc2ccccc12)C1CCCCC1 :: inactive
CN(C)CCNC(=O)c1cc2c3cc(Cl)ccc3[nH]c2c2ncccc12 :: active
C=CCc1c(O)c(C(=O)/C=C/c2ccccc2)c(OC)c2ccoc12 :: inactive
O=C(O)c1cn(C2CC2)c2cc(N3CCN(C(=O)N(c4ccccc4)c4nc(-c5ccccc5)cs4)CC3)c(F)cc2c1=O :: active
O=S(=O)(NCCNc1nccc(-c2c(-c3ccc(F)c(O)c3)nc3sccn23)n1)c1ccc(O)cc1 :: inactive
Cc1cc(S(=O)(=O)/N=C(\N)n2nc(C)c(C)c2C)c(SCc2ccccc2)cc1Cl :: inactive
O=C(Nc1cccc(-c2ccc(N3CCOCC3)nn2)c1)Nc1cccc(C(F)(F)F)c1 :: inactive
COc1cc2ncnc(Nc3ccc(S(=O)(=O)Nc4cc(C)on4)cc3)c2cc1OCCCN1CCN(c2ccc(F)cc2)CC1 :: inactive

Okay, next one:
In: How was `CNC(=O)c1[nH]cc(-c2ccc(OC)cc2)c1-c1cc(OC)c2c(c1OC)OCO2` classified in this test?
Out: inactive

###

tested on: UACC-62 melanoma; experiment: NCI-60 one-dose screen, 48 h; conditions: 10 µM unless noted
Compounds without any hit were thinned out: in the full panel of roughly 83,000, 20% have a hit. Active and inactive are the calls of the source. The calls were made as follows: active = growth percent below 10; inactive = the rest.
Choose the fitting class; nothing outside t (active), f (inactive) is accepted.

In: Hi, do you know how `COc1cc(-c2cncn2-c2ccc(-c3nc4ccc(F)cc4s3)cc2)ccc1F` came out in this test?
Out: f

In: Then this compound: `O=C1/C(=C/c2cccc(F)c2)CN(C(=O)C(Cl)Cl)C/C1=C\c1cccc(F)c1`
Out: t

In: Similarly, `S=c1sc2c(Cl)nc(-c3cccnc3)nc2n1-c1ccccc1` ?
Out: t

In: Try this compound next: CCc1ncnc2c1ccn2C(C)c1ccc(OC)c(F)c1 (stereo unspecified)
Out: f

In: And what about the compound `c1csc(-c2ccc(CNc3c4ccccc4nc4ccccc34)cc2)c1` ?
Out: f

In: Also `CNc1nnc2n(-c3ccccc3)c(=O)c3cnn(-c4ccccc4)c3n12` ?
Out: f

In: Query `N#Cc1c(-c2ccc(Cl)cc2)nc(NN2C(=O)c3ccccc3C2=O)nc1N1CCOCC1` next
Out: f

In: Another compound: `C=C1C(=O)O[C@H]2[C@H]1CC/C(COC(=O)/C=C\C(=O)NCc1ccc(Cn3c(=O)sn(CCI)c3=O)cc1)=C\CC[C@@]1(C)O[C@@H]21`
Out: f

In: Try the compound `CCn1c(SCC(=O)N/N=C(\C)c2ccc(Cl)cc2)nc2c1c(=O)n(C)c(=O)n2C`
Out: f

In: Follow-up item: `O=C1c2c(c3c4ccccc4[nH]c3c3ccc4ccccc4c23)C(=O)N1CCN1CCNCC1`
Out: f

In: Thanks! And `CC1=C2[C@@H](CC1)[C@]1(C)O[C@@](C(C)C)(C[C@H]1OC(=O)[C@H](C)O)[C@H]2OC(=O)/C=C/c1ccccc1` ?
Out: f

Entry source: PubChem BioAssay (NCI)
